pIC50: −log10 of the molar value.
Serine-protein kinase ATM (Homo sapiens) pIC50, compiled from various sources.
Sequence (Q13315 whole entry): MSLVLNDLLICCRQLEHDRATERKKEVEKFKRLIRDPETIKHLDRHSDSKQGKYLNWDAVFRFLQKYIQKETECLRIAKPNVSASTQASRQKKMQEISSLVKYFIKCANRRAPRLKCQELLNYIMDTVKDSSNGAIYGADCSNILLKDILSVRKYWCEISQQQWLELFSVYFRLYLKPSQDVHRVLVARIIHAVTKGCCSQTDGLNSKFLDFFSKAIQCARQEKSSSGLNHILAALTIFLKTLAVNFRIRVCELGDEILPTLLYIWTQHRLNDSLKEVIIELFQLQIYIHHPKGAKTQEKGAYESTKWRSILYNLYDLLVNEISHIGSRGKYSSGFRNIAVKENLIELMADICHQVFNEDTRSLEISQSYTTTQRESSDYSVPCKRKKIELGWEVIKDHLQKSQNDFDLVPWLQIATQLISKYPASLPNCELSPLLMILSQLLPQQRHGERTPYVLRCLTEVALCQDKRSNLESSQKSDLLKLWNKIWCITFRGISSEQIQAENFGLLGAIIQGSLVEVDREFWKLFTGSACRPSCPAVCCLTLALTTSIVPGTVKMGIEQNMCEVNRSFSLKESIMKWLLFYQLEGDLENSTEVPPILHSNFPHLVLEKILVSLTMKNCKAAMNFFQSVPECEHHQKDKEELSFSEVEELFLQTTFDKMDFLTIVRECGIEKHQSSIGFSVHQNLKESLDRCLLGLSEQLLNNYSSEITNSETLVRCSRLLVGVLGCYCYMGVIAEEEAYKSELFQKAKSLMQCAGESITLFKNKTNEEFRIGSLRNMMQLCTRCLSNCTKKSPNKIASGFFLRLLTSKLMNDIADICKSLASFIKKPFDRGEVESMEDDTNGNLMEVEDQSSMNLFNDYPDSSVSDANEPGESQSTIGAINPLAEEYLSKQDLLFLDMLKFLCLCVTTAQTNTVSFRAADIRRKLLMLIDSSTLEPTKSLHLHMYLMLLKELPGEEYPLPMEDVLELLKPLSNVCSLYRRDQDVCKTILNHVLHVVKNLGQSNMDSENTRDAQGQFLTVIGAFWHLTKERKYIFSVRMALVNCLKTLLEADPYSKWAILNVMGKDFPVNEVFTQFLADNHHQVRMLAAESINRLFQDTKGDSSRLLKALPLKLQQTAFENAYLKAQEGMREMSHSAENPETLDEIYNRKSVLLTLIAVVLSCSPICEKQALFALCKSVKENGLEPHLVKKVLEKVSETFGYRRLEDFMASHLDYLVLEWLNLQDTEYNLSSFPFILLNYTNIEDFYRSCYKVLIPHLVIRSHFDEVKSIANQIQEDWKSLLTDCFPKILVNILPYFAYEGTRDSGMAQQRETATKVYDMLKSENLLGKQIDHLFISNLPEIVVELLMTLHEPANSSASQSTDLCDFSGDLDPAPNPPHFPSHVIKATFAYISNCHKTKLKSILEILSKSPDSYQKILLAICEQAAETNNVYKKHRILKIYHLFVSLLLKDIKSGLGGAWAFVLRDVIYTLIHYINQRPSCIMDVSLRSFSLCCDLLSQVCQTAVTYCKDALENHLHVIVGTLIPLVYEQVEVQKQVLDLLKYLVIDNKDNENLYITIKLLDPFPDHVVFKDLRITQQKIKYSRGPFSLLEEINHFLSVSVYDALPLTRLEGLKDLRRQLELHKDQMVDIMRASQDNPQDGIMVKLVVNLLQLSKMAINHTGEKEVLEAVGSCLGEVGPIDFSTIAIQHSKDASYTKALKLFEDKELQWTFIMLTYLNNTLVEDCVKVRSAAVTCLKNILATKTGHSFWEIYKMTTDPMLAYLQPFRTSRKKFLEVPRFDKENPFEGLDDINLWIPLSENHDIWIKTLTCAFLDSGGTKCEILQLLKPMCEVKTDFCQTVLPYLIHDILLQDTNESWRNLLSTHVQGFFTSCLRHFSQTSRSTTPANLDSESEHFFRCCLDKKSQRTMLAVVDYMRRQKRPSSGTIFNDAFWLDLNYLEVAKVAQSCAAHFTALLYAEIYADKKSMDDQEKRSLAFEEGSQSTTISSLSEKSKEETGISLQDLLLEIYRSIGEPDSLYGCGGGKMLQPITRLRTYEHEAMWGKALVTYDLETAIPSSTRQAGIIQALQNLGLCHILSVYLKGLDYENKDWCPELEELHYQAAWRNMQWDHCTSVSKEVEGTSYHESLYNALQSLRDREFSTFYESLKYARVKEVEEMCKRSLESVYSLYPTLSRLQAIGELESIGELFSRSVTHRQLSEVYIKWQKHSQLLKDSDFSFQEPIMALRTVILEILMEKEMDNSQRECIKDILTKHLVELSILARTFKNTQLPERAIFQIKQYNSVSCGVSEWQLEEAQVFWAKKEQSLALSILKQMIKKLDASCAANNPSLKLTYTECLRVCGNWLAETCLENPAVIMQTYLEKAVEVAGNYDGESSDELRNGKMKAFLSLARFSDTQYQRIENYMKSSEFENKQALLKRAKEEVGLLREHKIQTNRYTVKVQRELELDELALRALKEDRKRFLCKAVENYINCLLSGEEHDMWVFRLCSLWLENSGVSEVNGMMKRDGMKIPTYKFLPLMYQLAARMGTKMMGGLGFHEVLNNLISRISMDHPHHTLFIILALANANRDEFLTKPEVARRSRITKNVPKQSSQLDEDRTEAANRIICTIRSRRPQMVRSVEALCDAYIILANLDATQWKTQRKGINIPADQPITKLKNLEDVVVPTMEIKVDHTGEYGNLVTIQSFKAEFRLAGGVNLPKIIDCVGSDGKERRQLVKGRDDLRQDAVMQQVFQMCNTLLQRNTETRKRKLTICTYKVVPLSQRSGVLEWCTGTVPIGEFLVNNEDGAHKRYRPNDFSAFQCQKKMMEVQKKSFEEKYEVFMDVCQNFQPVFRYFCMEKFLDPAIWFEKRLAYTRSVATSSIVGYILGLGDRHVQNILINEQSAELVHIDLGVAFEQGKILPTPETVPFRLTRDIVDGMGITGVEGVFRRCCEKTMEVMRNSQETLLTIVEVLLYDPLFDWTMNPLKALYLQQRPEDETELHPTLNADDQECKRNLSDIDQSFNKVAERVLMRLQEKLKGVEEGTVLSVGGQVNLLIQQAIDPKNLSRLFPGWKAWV
endpoint-name: pIC50

// solved cases for pIC50 follow
{"molecule-smiles": "C[C@H](c1ccccc1)n1nnc2cnc3ccc(-c4ccc(N)nc4)cc3c21", "pIC50": 8.70}
{"molecule-smiles": "C[C@H](c1ccccc1)n1nnc2cnc3ccc(-c4ccc(OCCCN(C)C)nc4)cc3c21", "pIC50": 9.00}

[a] CCN(CC)CCCCNc1ncc2cc(-c3cc(OC)cc(OC)c3)c(NC(=O)NC(C)(C)C)nc2n1
[b] O=c1cc(-c2cccc3c2Sc2ccccc2S3)oc(N2CCCCC2)c1
Q) Between a and b , which one has the lower reported pIC50 value? Please indicate the selected item by its label.
A) a
